# targetOrTestSystem: dopamine D-2 receptor (Rattus norvegicus, UniProt P61169)
# Sequence (P61169 whole entry): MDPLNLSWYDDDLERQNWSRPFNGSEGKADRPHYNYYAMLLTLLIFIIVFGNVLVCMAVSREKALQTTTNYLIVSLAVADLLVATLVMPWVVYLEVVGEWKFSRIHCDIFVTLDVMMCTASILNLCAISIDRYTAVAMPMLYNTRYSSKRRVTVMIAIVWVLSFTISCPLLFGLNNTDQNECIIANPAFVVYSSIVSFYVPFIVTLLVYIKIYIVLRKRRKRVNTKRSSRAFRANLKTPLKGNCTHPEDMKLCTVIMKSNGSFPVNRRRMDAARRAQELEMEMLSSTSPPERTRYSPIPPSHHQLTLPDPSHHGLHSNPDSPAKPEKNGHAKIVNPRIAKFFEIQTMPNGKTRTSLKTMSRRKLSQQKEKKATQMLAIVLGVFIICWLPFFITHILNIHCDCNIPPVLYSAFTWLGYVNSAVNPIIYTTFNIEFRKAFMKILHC
# assayRemarks: dopamine D-2 receptor binding (displacement of 3H-spiroperidol, homogenized limbic brain tissue)
pKi: −log10 of the molar value.

| compound | pKi |
| --- | --- |
| O=C1C2CC(C(=O)N1CCCCN1CCN(c3nsc4ccccc34)CC1)C1C2C2C3CC4C2C4C31 (stereo not shown) | 9.30 |

----------
# targetOrTestSystem: dopamine D-2 receptor (Rattus norvegicus)
# Construct: from tissue; host or cells: limbic brain tissue, homogenized
# assayRemarks: dopamine D-2 receptor binding (displacement of 3H-spiroperidol, homogenized limbic brain tissue)

| molecule | unitInfo | inhibition at 1 µM |
| --- | --- | --- |
| O=C1C2CC(C(=O)N1CCCCN1CCN(c3nsc4ccccc34)CC1)C1C2C2C3CC4C2C4C31 (stereo not shown) [Example 5] | % | 95 |
| O=C1C2C3C=CC(C4C=CC43)C2C(=O)N1CCCCN1CCN(c2nsc3ccccc23)CC1 (stereo not shown) [Example 4] | % | 95 |
| O=C1C2C(C(=O)N1CCCCN1CCN(c3nsc4ccccc34)CC1)C1C3CC4C(C32)C41 (stereo not shown) [Example 6] | % | 100 |
| O=C1C2C3C=CC(C4CC34)C2C(=O)N1CCCCN1CCN(c2nsc3ccccc23)CC1 (stereo not shown) [Example 3] | % | 99 |

----------
# targetOrTestSystem: serotonin 5-HT1A receptor (Rattus norvegicus)
# Construct: following the procedure of Hall et al., J. Neurochem; 44, 1685 (1985); from tissue
# assayRemarks: serotonin 5-HT1A receptor binding (displacement of [3H]8-OHDPAT)
Measured inhibition at 1 µM, listed per entry.

| molecule | unitInfo | inhibition at 1 µM |
| --- | --- | --- |
| O=C1C2CC(C(=O)N1CCCCN1CCN(c3nsc4ccccc34)CC1)C1C2C2C3CC4C2C4C31 (stereo not shown) [Example 5] | % | 96 |
| O=C1C2C3C=CC(C4C=CC43)C2C(=O)N1CCCCN1CCN(c2nsc3ccccc23)CC1 (stereo not shown) [Example 4] | % | 97 |
| O=C1C2C3C=CC(C4CC34)C2C(=O)N1CCCCN1CCN(c2nsc3ccccc23)CC1 (stereo not shown) [Example 3] | % | 100 |
| O=C1C2C(C(=O)N1CCCCN1CCN(c3nsc4ccccc34)CC1)C1C3CC4C(C32)C41 (stereo not shown) [Example 6] | % | 100 |

----------
# targetOrTestSystem: serotonin 5-HT1A receptor (Rattus norvegicus, UniProt P19327)
# Sequence (P19327 whole entry): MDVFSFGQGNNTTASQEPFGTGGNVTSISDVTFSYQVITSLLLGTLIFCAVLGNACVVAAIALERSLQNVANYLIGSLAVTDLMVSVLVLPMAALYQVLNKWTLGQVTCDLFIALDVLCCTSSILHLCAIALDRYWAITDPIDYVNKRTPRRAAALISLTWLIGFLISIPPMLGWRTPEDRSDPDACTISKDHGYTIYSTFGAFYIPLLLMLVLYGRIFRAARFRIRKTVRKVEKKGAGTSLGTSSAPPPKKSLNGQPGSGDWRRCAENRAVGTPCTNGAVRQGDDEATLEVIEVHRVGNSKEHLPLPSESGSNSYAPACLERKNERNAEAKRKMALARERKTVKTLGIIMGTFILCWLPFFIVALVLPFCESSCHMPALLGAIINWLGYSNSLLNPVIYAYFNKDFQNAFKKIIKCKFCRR

| compound | Ki (nM) |
| --- | --- |
| O=C1C2CC(C(=O)N1CCCCN1CCN(c3nsc4ccccc34)CC1)C1C2C2C3CC4C2C4C31 (stereo not shown) | 0.065 |
